# Tested on: SN12C renal
# Assay details: NCI-60 one-dose screen, 48 h
# Condition context: 10 µM unless noted
# Method: Growth inhibition of the SN12C human tumor cell line is measured as a screen for anti-cancer activity. Cells are grown in 96 well plates and exposed to the test compound for 48 hours. Compounds are tested at a single concentration, which is 10^-5 M for most compounds. The reported endpoint is percent growth (GI% or GIPRCNT), where numbers from 0 - 100% represent growth inhibition, and numbers from -100% - 0 represent cell death. For example, a value of 40 represents 60% growth inhibition. […]
The panel holds about 83,000 compounds, 20% with a hit somewhere; the sample as a whole holds those more often. Active and inactive are the calls of the source. The calls were made as follows: active = growth percent below 10; inactive = the rest.
Classes used: active, inactive

- Nc1cc2ccncc2c2ccccc12: inactive
- COc1ccc(S(=O)(=O)NCCCNc2cc(-c3c(-c4cccc(OC)c4)nc4sccn34)ccn2)cc1: inactive
- COc1cccc(NC(=O)c2sc3nc4c(cc3c2N)CN(Cc2ccccc2)CC4)c1: inactive
- CC/C=C\C[C@H](O)C/C=C1/C(=O)C=C[C@@H]1C/C=C\CCCC(=O)NC: active
- c1ccc2sc(SCCCn3ccnc3)nc2c1: inactive
- CCC(=O)Oc1ccc(/C(=C(\C)c2ccccc2)c2ccc(OCCN(CC)CC)cc2)cc1: inactive
- CCOC(=O)c1c2ncccc2n2c(=O)n(-c3ccc(Cl)cc3)nnc12: inactive
- CCCCCCCCOC(=O)CC[C@@H](C)[C@H]1CC[C@H]2[C@@H]3[C@H](OC(=O)CCN)C[C@@H]4C[C@H](OC(=O)CCN)CC[C@]4(C)[C@H]3C[C@H](OC(=O)CCN)[C@]12C: inactive
- Nc1nc2c(c3ncccc13)C(c1cccc(Br)c1)Cc1ncccc1-2 (configuration not stated): inactive
- CCCCCCCCCCCCCCCCCCNC(=O)[C@H]1CSC(c2ccc(F)c(OC)c2)N1 (some centres not stated): active
- COc1cc(NCCCCCN=C(N)NC(N)=NC(C)C)c2ncccc2c1: inactive
- CC[C@H](Nc1nc(N)nc(C)c1C#N)c1nc2cccc(NCc3ccc(C(=O)NO)cc3)c2c(=O)n1-c1ccccc1: inactive
- COc1ccc(/C=C2\N=C3Sc4cc(Cl)ccc4C(=O)N3C2=O)cc1: inactive
- COc1ccc(CCN2CCCn3c2nc2ccccc2c3=O)cc1: inactive
- CC(C)CC(CC1=CCC2CC1C2(C)C)C1=C(O)C(C)(C)C(=O)C(C)(C)C1=O (configuration not stated): active
- COc1ccc2nc3cc(Cl)ccc3c(NCCNCC(O)CO)c2c1 (configuration not stated): active
- Brc1cccc(-c2cc(-c3ccc4c(c3)OCCO4)[nH]n2)c1: inactive

----------
# Tested on: CAKI-1 renal
# Assay details: NCI-60 one-dose screen, 48 h (100 = growth as untreated, 0 = no growth, -100 = all killed)
# Condition context: 10 µM unless noted
# Experimental: Growth inhibition of the CAKI-1 human tumor cell line is measured as a screen for anti-cancer activity. Cells are grown in 96 well plates and exposed to the test compound for 48 hours. Compounds are tested at a single concentration, which is 10^-5 M for most compounds. The reported endpoint is percent growth (GI% or GIPRCNT), where numbers from 0 - 100% represent growth inhibition, and numbers from -100% - 0 represent cell death. For example, a value of 40 represents 60% growth inhibition. […]
The panel holds about 83,000 compounds, 20% with a hit somewhere; the sample as a whole holds those more often.
The entries below are paired with their reported growth.
Reported endpoint: growth (%)

* COc1ccc(C(=O)/C=C/c2c[n+](=O)c3ccc(F)cc3n2[O-])cc1 | 95.2
* C=C1CC2(OC1=O)C(=O)Nc1ccccc12 (stereo not given) | 31.5
* NS(=O)(=O)c1ccc(Nc2nc3n[nH]c(Nc4ccccc4)c3c(=O)[nH]2)cc1 | 88.7
* CC(C)(C)c1nn(-c2ccccc2)c2c1CC1(CN2Cc2ccc3c(c2)OCO3)C(=O)c2ccccc2C1=O | 98.9
* CC[C@H](Nc1nc(N)nc(C)c1C#N)c1nc2cccc(NCc3ccc(C(=O)NO)cc3)c2c(=O)n1-c1ccccc1 | 13.2
* Nc1nc(SCc2ccccc2)c2ncn(C3CCCC3)c2n1 | 102
* COc1cccc(-c2cn3c(ccc4ccccc43)n2)c1 | 32.4
* C[C@@H]1CC[C@@H]2[C@@H]1[C@H](OC(=O)/C=C/c1ccccc1)[C@]1(c3ccccc3)C[C@@H](OC(=O)CO)[C@@]2(C)O1 | 15.4
* CN1/C(=C\C=C\C2=[N+](C)c3ccccc3C2(C)C)C(C)(C)c2ccccc21 | 23
* CC(C)Oc1nc2c(c(=O)n(C)c(=O)n2C)n1C | 100

----------
# Tested on: U251 CNS
# Assay details: NCI-60 one-dose screen, 48 h (100 = growth as untreated, 0 = no growth, -100 = all killed)
# Condition context: 10 µM unless noted
This is part of a sample that, as a whole, favours compounds with a hit. Of some 83,000 tested, about 20% had one in any assay.
Field: class. Source value: growth. Ranges: low = under 10%, middle = from 10% up to 40%, high = 40% and over

- COc1cc2c(=O)n(CC3CCCCC3)c3c4cc[nH]c4ncc3c2cc1OC: middle
- CCOC(=O)c1cnc2ccc(Br)cc2c1Nc1cccc(S(=O)(=O)NC)c1: high
- COc1ccc(C(=O)/C=C/c2c(Cl)c3c(c(OC)c2Cl)OCC(=O)N3)cc1: middle
- CCN1CCN(Cc2ccc(NC(=O)Nc3nc4ccc(Oc5ccnc(C(=O)NC)c5)cc4s3)cc2C(F)(F)F)CC1: low
- Cc1cc2cc3cc(C)c(N(C)C)cc3[n+](C)c2cc1N(C)C: middle
- O=c1cc(-c2ccccc2)[nH]c2ccccc12: middle
- NS(=O)(=O)N(c1cc(C(F)(F)F)cc(C(F)(F)F)c1)C1CCN(Cc2ccc(F)cc2)CC1: high
- O=C1c2cc3c(cc2-c2c1c1cc(Cl)c(Cl)cc1c(=O)n2CCCn1ccnc1)OCO3: low

----------
# Tested on: SK-MEL-28 melanoma
# Assay details: NCI-60 one-dose screen, 48 h (100 = growth as untreated, 0 = no growth, -100 = all killed)
# Condition context: 10 µM unless noted
This is part of a sample that, as a whole, favours compounds with a hit. Of some 83,000 tested, about 20% had one in any assay.
Reported endpoint: growth (%)

* CCN(CC)CCC(=O)c1ccc(OC)c2ccccc12 | 122
* O=C(Nc1ccc(F)cc1)Nc1ccc(CCO)cc1 | 106
* O=C1C(=O)N(CCCCn2cc(CO)nn2)c2ccccc21 | 109
* Nc1nc2c(c3ncccc13)C(c1ccc(Cl)c(Cl)c1)Cc1ncccc1-2 (stereo not drawn) | 49.2
* C=CC[N+]1(CCO)CCN=C1CCCCCCCCCCCCC (stereo not drawn) | -69.5
* COc1cccc(/C=C\C(=O)c2ccccc2)c1 | 103
* COC(=O)[C@@H]1CC[C@]2(C)[C@H](CC[C@@H]3O[C@@]32C)[C@@]1(C)CC(=O)c1ccoc1 | 104
* CCCCCCCCCCCCS(=O)CC(C)O (stereo not drawn) | 102
* Cc1ccc2c(c1)n([O-])c1cc(Cl)ccc1[n+]2=O | 133
* CCCCCCCCCCCCCCCCNCCC[C@@H](C)[C@H]1CC[C@H]2[C@@H]3[C@H](OCCCN)C[C@@H]4C[C@H](OCCCN)CC[C@]4(C)[C@H]3C[C@H](OCCCN)[C@]12C | -64.7
* COc1ccc(-c2cc(-c3cccnc3)nc3sc4c(=O)n(-c5ccc(C)cc5)nnc4c23)cc1OC | 99.9
* O=C(N/N=C/c1ccc(O)cc1O)c1cccnc1 | 50.4
* COc1ccc(CCN2CCCn3c2nc2ccccc2c3=O)cc1 | 49.6
* CCN(CC)c1ccc(CNc2cc(C)nc3ccc(OC)cc23)cc1 | 96.6
* NC1=CSC2=N/C(=C\c3ccc(Cl)cc3)C(=O)N12 | 96.3
* C#Cc1nc(Nc2cc(C)[nH]n2)c2ccccc2n1 | -58.5
* CC1=CC(=O)CC(C)(C)[C@@]1(O)/C=C/[C@@H](C)O | 108
* COc1ccc(N(Cc2cc(OC)c(OC)c(OC)c2)C2OC(=O)c3ccccc32)cc1 (stereo not drawn) | 55.5
* C=CCSc1nnc(-c2ccc(C(C)(C)C)cc2)n1-c1cccc(C(F)(F)F)c1 | 67.8
* CCN(C(=O)CN1CCN(c2cc3c(cc2F)c(=O)c(C(=O)O)cn3CC)CC1)c1nc(-c2ccccc2)cs1 | 41.9
* CC1=N/C(=C\c2cccc(Br)c2)C(=O)O1 | 114
* CCCCCCCCCc1cc(CN2CCCCC2)c(O)c(CN2CCCCC2)c1 | 74
* COc1ccc(/C=N\NC(=O)c2ccncc2)cc1O | 104
* CC/C(=C(\c1ccccc1)c1ccc(OCCNC)cc1)c1ccccc1 | -98.5
* CC(=O)OC1Oc2cc(C)c(C)cc2-c2oc(=O)c(-c3cc4ccc(N(C)C)cc4oc3=O)cc21 (stereo not drawn) | 115
* COc1cc(C2C(C(=O)c3cccs3)=C(O)C(=O)N2CCN2CCOCC2)cc(OC)c1OC (stereo not drawn) | 104
* CC/C(Cc1ccccc1)=C(/c1ccc(O)cc1)c1ccc(OCCN2CCCC2)cc1 | -84.5
* Nc1nc(-c2ccc(F)cc2)cc(-c2cnn(-c3ccccc3)n2)n1 | 107
* N#Cc1c2c(nc3n[nH]c(N)c13)CCCC2 | 122
* COc1ccc(S(=O)(=O)NCCNc2nccc(-c3c(-c4cccc(N)c4)nc4sccn34)n2)cc1 | 117
* COC1C/C(=N\O)C2OC(c3ccccc3)OCC2O1 (stereo not drawn) | 101
* CCOC(=O)/C=C/c1ccc(C(=O)OCC)[nH]1 | 83.8
* O=C1/C(=C/c2ccc(Cl)cc2Cl)CN(S(=O)(=O)c2ccccc2)C/C1=C\c1ccc(Cl)cc1Cl | 34.4
* O=C(CN1CCN(c2cc3c(cc2F)c(=O)c(C(=O)N/N=C/c2ccccc2)cn3C2CC2)CC1)N/N=C\c1ccccc1 | 88.9
* CCCCCCCCCCCCCCCCCCSC1=CC(=O)C(OC)=C(OC)C1=O | 97.3
* O=C1c2c[n+](Cc3ccccc3)ccc2-c2nc3ccccc3c3ccnc1c23 | -34.3
* CC(=O)/C(=C/c1cccc(Cl)c1)C(=O)c1ccccc1 | 90.9
* COc1cc(C2CC(=O)c3c(C)nn(-c4nc5ccccc5[nH]4)c3C2)cc(OC)c1OC (stereo not drawn) | 86.5
* Nc1cc2nc3ccccc3sc-2cc1=O | 46.5
* O=C(Nc1cccc2c1C(=O)c1cccc(Nc3cccc4c3C(=O)c3cccc(NC(=O)c5ccccc5)c3C4=O)c1C2=O)c1ccccc1 | 118
* OC(c1cccc(C(F)(F)F)c1)c1cnccc1NC1CCCCCC1 (stereo not drawn) | -12.9
* COCCCNc1nc(NC(=O)c2ccc(F)cc2C)cc(-c2cccnc2)n1 | 107
* C(=N\Nc1ccccn1)/c1ccccn1 | 34.8

Provenance of the data: PubChem BioAssay (NCI)
